// data source = patent US20130330334A1

# Relative Binding (IC50 of test sample divided by IC50 of mouse antibody) per record follows
Molecular target: human CD4 (coated on ELISA plate) (human, UniProt P01730 26-396, limits assumed)
Assay: competition ELISA, plate-coated human CD4, competitor biotinylated mouse antibody at 0.2 µg/ml
reported-metric: Relative Binding (IC50 of test sample divided by IC50 of mouse antibody) (fold)

modified anti-CD4 antibody VH4/VK1 (antibody, V domains shown) VH: EVQLQQSGTELKRPGASVKMSCKASGYTFANYWMHWVKQAPGQGLQWIGALYPGNVDTTYNQKFKDKAKLTAVTSASTAYMELSSLTNEDSAVYYCTRMGTTLEAPLDYWGQGTTVTVSS VL: QIVLTQSPATLSASPGEKAAMTCSARSSVSYLYWYQQKPGSSPRALIYDTSNLASGVPSRFSGSGSGTDYSLTISSMEAEDAATYYCQQWSDYPLTFGAGTKLEIK: 3.89
modified anti-CD4 antibody VH1/VK4 (antibody, V domains shown) VH: EVQLQQSGSELKRPGASVKVSCKASGYTFANYWMHWVRQAPGQGLQWIGALYPGNVDTTYNQKFKDKAKITRDTSASTAYMELSSLTNEDTAVYYCTRMGTTLEAPLDYWGQGTLVTVSS VL: QIVLTQSPAILSASPGEKAAMTCSARSSVSYLYWYQQKPGSSPRLLIYDTSNLASGVPSRFIGSGSGTDYSLTISSMEAEDAATYYCQQWSDYPLTFGAGTKLEIK: 5.06
modified anti-CD4 antibody VH2/VK4 (antibody, V domains shown) VH: EVQLQQSGSELKRPGASVKVSCKASGYTFANYWMHWVKQAPGQGLQWIGALYPGNVDTTYNQKFKDKAKLTADTSASTAYMELSSLTNEDTAVYYCTRMGTTLEAPLDYWGQGTLVTVSS VL: QIVLTQSPAILSASPGEKAAMTCSARSSVSYLYWYQQKPGSSPRLLIYDTSNLASGVPSRFIGSGSGTDYSLTISSMEAEDAATYYCQQWSDYPLTFGAGTKLEIK: 1.44
